Parameter pIC50: see the listing below.
# TARGET DESC: T1, human CD30 (commercial), conjugated to digoxigenin (human) (UniProt P28908)
# T1 sequence (conjugated to digoxigenin (DIG), looked up): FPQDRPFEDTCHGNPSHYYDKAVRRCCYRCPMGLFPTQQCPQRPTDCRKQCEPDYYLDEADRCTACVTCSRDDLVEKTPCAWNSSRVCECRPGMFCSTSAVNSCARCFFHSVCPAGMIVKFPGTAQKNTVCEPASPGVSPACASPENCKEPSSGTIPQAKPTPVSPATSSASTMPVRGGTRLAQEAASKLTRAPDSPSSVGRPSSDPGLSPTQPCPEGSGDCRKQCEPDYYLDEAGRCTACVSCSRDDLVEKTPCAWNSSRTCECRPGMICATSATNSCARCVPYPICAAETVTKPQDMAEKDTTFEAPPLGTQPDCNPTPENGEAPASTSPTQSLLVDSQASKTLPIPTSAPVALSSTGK
# METHOD SUMMARY: AlphaScreen competition with biotin-WT AC10
pIC50: −log10 of the molar value.
PROPERTY LABEL: pIC50

| BINDER | MEASURED |
| --- | --- |
| AC10 H1L1 (H1 AC10 VH, L1 AC10 VL) (antibody, from a related filing, IgG1, V domains shown) VH: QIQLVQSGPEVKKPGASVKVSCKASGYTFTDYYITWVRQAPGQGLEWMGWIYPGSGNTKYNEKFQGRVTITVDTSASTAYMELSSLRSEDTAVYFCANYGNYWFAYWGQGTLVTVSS VL: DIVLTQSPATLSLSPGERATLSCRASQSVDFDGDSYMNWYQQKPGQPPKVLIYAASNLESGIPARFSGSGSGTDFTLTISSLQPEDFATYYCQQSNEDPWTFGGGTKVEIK | 7.56 |
| AC10 H2L3 (H2 AC10 VH, L3 AC10 VL) (antibody, from a related filing, IgG1, V domains shown) VH: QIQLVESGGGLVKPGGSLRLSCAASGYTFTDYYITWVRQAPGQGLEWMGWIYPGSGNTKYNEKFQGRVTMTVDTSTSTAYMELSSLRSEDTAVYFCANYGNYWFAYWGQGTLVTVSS VL: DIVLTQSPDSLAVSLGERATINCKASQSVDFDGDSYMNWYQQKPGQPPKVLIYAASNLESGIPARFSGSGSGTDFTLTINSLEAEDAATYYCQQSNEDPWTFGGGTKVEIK | 7.57 |
| AC10 H1L2 (H1 AC10 VH, L2 AC10 VL) (antibody, from a related filing, IgG1, V domains shown) VH: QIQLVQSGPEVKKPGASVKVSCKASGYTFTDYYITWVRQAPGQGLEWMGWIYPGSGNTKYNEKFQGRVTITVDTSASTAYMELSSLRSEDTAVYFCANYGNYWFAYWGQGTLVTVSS VL: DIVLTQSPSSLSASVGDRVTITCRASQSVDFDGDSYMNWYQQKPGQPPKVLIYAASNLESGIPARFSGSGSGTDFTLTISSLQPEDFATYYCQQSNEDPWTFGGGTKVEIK | 7.34 |
| AC10 H2L1 (H2 AC10 VH, L1 AC10 VL) (antibody, from a related filing, IgG1, V domains shown) VH: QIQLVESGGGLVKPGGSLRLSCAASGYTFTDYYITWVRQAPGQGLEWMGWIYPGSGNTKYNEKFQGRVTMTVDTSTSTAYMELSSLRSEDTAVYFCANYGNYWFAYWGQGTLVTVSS VL: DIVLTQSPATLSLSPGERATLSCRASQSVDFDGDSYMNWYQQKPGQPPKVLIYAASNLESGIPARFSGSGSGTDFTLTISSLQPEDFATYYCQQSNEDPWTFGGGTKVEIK | 7.26 |
